- tgt: human DcpS enzyme (hDcpS) (Homo sapiens, UniProt Q96C86)
- Construct: made in house
- Sequence (Q96C86 whole entry): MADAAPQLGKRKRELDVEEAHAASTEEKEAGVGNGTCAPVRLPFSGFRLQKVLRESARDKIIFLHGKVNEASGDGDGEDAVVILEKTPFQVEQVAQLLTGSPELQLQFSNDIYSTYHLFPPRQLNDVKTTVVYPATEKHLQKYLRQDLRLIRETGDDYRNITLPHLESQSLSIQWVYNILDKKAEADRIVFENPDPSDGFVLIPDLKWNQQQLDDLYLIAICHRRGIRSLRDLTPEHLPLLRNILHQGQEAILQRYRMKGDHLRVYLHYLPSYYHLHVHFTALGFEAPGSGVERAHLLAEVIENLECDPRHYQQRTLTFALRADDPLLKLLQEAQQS
- measurement.notes: Susceptibility of cap analogs to degradation by DcpS enzyme (RP-HPLC)
- Type: biochemical
- measurement.setup: tested as substrates of hDcpS, RP HPLC

molecule: C[n+]1cn([C@@H]2O[C@H](COP(=O)(O)OP(=O)([S-])OP(=O)(O)SC[C@H]3O[C@@H](n4cnc5c(=O)[nH]c(N)nc54)C(O)C3O)C(O)C2O)c2nc(N)nc(O)c21 (stereo partly drawn) [compound 36]
hydrolysis by hDcpS: hydrolyzed
--
molecule: C[n+]1cn([C@@H]2O[C@H](COP(=O)(O)OP(=O)(O)OP(=O)([O-])SC[C@H]3O[C@@H](n4cnc5c(=O)[nH]c(N)nc54)C(O)C3O)C(O)C2O)c2nc(N)nc(O)c21 (stereo partly drawn) [compound 22]
hydrolysis by hDcpS: hydrolyzed
